Conditions: Glass; DTA
readoutKind: Glass transition temperature (°C)
Answers are plain numbers, in °C.

The following molecules have reported results that may help.
CCCCCCCC[n+]1cccc(C)c1C.O=S(=O)([O-])C(F)(F)F
-63.0
CCCCCCCC[n+]1cc(CC)ccc1C.N#C[N-]C#N [5-ethyl-2-methyl-1-octylpyridinium dicyanamide]
-59.0
CCCCCCCC[n+]1cc(C)cc(C)c1.N#C[S-] [3,5-dimethyl-1-octylpyridinium thiocyanate]
-74.0
CCCC[n+]1cccc(C)c1C.O=S(=O)([N-]S(=O)(=O)C(F)(F)F)C(F)(F)F
-81.0

Turning now to a further record.
Glass transition temperature for `CCCC[n+]1cc(CC)ccc1C.O=S(=O)([N-]S(=O)(=O)C(F)(F)F)C(F)(F)F` ?
-81.0

Values were extracted from the NIST ThermoML archive (doi:10.1021/je9009283).
